Property: Percent Effect; scope: individual compounds
study.system: Chromo domain-containing protein 1 (Saccharomyces cerevisiae (strain ATCC 204508 / S288c) (Baker's yeast)) (UniProt P32657)
Sequence (P32657 whole entry, the tested form may be a part): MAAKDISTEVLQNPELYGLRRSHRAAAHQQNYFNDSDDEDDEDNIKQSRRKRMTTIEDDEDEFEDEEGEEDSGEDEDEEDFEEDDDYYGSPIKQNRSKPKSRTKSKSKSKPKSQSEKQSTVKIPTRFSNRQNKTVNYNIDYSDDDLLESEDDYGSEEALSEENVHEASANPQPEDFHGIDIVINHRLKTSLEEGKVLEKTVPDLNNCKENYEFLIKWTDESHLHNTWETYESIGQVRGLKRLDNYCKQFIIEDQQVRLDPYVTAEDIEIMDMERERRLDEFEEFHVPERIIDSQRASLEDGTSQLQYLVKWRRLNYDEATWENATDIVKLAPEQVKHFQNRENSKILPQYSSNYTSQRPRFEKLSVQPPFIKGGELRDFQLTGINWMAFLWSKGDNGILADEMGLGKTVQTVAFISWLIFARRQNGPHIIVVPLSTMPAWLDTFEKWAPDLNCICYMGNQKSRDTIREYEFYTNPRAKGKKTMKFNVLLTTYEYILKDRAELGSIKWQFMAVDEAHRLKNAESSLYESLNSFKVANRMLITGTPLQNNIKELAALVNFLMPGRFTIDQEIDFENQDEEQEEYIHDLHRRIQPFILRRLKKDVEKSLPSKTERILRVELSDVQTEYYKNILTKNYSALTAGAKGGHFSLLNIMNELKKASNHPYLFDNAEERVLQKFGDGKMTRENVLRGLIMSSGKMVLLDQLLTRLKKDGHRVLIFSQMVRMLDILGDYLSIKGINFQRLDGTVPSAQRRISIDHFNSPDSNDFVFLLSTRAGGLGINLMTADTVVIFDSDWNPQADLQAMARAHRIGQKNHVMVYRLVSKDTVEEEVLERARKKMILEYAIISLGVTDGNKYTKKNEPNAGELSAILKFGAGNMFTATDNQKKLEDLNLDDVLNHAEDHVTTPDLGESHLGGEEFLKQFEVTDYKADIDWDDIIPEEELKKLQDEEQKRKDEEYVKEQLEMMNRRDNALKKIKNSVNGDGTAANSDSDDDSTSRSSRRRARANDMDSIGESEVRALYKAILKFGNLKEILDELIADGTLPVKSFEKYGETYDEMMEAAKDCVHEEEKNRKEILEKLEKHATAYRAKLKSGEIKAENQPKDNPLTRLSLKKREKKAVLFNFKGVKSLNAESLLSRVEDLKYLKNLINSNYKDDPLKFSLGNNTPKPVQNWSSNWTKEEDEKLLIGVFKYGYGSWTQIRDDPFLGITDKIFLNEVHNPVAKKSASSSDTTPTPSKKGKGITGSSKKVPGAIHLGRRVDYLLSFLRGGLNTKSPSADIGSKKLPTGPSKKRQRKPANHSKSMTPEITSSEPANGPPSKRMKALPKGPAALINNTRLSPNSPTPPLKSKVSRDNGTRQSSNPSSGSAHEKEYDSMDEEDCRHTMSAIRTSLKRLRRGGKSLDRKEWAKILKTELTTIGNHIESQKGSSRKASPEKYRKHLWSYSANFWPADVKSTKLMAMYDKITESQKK
method.summary: ScCHD-1 Enzyme Inhibition Assay; also: in the data most compounds retested in dose-response had high values
Format: functional
Set-up: scale not given: direction of the effect not stated beside the values
measurement.context: 30 µM
Write the answer as a number in %, unit excluded.

Below, each entry is followed by its recorded Percent Effect result.
Memo: CC(Cn1ccnc1)NC(=O)C1(c2ccc3c(c2)OCCO3)CCCC1 (configuration not stated) , reported Percent Effect: -7.42

Please fill in: Percent Effect reported for "CCCN1CCC(NC(=O)c2ccc(F)cc2I)CC1" = -5.41

Please fill in: Percent Effect reported for O=C(NCC1CCS(=O)(=O)C1)c1sccc1-c1ccc(F)cc1 (configuration not stated) = 0.115

Lab book: Percent Effect of "Cc1ccc(NC2CCN(C(=O)Cc3cccc(F)c3)CC2)nn1" noted as -10.9

More entries:
Percent Effect recorded for this compound, "COc1cc(CNCCc2nc(C)cs2)cc2c1OCCO2" , is -7.14

Query "Cc1ccc(C(=O)N2CCn3cc(CN(C)Cc4ccco4)nc3C2)o1" yields Percent Effect of 105

According to the records, this compound Cc1cnn(C2CCCN(C(=O)c3cc(C)sc3C)C2)c1 (configuration not stated) displays Percent Effect of -5.57

----------
System: Trypanosoma cruzi
method.summary: Trypanosoma cruzi phosphomannomutase and mannose-1-phosphate guanylyltransferase assay
Type: functional
Parameters: scale not given: direction of the effect not stated beside the values
measurement.context: 10 µM
metric.name: Percent Effect (%)
Respond with the bare value in %.

Examples with their reported Percent Effect follow.
Fill in: Trypanosoma cruzi Percent Effect for "CCc1nc(NS(=O)(=O)c2ccc(C)cc2Cl)no1" = 4.19

Lab entry: Trypanosoma cruzi assay, compound CC(C)c1nc(C2CCCN2C(=O)c2ccc(N(C)C)nn2)no1 (configuration not stated) , Percent Effect = 0.0929

The compound "COc1c(CNCc2ccc(CN(C)C)cc2)c(C)nn1C" on Trypanosoma cruzi: Percent Effect was 3.79

Further cases:
Lab note: compound "CNC(=O)CCNC(=O)c1cccc(Cn2nc(C)cc2C)c1" tested on Trypanosoma cruzi; recorded Percent Effect was 5.15

----------
study.system: Arginase-2, mitochondrial (Homo sapiens)
Sequence (whole entry): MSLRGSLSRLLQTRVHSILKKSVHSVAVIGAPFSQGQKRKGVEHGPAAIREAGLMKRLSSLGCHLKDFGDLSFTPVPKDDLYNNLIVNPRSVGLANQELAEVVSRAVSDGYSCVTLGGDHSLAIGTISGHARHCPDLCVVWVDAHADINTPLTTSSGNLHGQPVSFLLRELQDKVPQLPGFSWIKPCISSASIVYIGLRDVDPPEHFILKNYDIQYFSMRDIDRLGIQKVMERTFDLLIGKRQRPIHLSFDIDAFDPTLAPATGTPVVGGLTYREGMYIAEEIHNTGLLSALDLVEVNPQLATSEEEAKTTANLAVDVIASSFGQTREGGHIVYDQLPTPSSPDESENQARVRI
method.summary: in vitro enzyme assay to detect the production of urea directly proportional to the activity of Arginase II; also: in the data most compounds retested in dose-response had high values
Type: functional
Set-up: scale not given: direction of the effect not stated beside the values
measurement.context: 33.3 µM
Reported Percent Effect values for a set of compounds
Kindly answer with a numeric value in %, unit omitted.

Past entries and their recorded results:
The compound listed as "Cc1cc(C[C@@H]2CCC[C@H]2NCc2cc(C)c(O)c(C)c2)on1" has a reported Percent Effect of -0.232

Reported Percent Effect ( NC(=O)C1(c2cnccn2)CCCN1Cc1cc2ccccc2o1 (stereo unspecified) ) = -2.09

CC(C)n1ncc2c1NC(=O)CC21C(=O)Nc2c(Cl)cc(Cl)cc21 (stereo unspecified) yielded Percent Effect of -9.33

Record "COc1ccc(OC)c(CNCCc2cc(F)cc3c2OCOC3)c1" , field Percent Effect: -3.09

In plain terms, "CCCN(C)C(=O)c1ccc2c(c1)[nH]c(=O)n2CCOCC" has a documented Percent Effect of 2.38

Kindly consider the entry below.
Sure, the documented Percent Effect for "OC[C@H]1CC[C@]2(CC1)CN(Cc1ccccn1)Cc1ccccc1O2" is 1.16

----------
Attribute: Percent Effect
study.system: Protein translocase subunit SecA (Escherichia coli (strain K12)) (UniProt P10408)
Sequence (P10408 whole entry): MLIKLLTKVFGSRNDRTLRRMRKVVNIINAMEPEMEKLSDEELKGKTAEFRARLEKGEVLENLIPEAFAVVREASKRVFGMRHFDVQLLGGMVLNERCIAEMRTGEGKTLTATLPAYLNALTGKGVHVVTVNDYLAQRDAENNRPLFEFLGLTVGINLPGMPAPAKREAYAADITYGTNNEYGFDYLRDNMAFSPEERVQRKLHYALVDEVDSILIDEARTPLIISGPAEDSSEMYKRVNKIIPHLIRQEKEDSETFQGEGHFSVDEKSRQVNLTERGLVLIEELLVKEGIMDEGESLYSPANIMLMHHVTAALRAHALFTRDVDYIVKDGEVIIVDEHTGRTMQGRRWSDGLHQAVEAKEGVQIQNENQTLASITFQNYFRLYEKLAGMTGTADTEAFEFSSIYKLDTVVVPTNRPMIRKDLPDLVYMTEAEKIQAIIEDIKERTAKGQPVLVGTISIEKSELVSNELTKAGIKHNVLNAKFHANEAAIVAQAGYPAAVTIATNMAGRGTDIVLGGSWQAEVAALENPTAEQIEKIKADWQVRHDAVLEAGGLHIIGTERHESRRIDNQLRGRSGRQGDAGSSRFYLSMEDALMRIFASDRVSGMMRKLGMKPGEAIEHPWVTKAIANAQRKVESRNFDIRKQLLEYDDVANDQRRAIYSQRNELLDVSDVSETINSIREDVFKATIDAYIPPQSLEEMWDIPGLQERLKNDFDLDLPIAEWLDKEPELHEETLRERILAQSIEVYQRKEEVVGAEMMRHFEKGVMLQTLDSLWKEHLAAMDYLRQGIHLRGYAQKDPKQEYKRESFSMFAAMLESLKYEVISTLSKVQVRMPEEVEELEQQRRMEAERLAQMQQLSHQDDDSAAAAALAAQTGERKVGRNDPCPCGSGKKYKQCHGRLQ
method.summary: Assay to Identify E. coli SecA ATPase Inhibitors
Format: functional
Design: scale not given: direction of the effect not stated beside the values
measurement.context: 30 µM
Results with a measured potency or affinity are listed apart.
Quick note: give the figure in %, leave out the unit.

Example entries begin here.
# Percent Effect of CC(C)c1nn(C)c(Cl)c1CNC1CCOc2ccccc21 (stereo not drawn) = -3.65

Short answer for "CC(C)CCN1Cc2c(C(=O)O)ncn2-c2ccccc2S1(=O)=O" : Percent Effect was 0.538

Record "CCCNC(=O)Cn1nc(C(C)C)c2cnn(C(C)(C)C)c2c1=O" . Reported Percent Effect: -3.37

Record summary for CNS(=O)(=O)c1ccc(CNC(=O)NCC2CCCO2)cc1 (stereo not drawn) : reported Percent Effect = -5

Just so you know, measured Percent Effect for "CCN1CCN(C2CCN(Cc3nc(-c4ccoc4)no3)CC2)C1=O" came out at -8.04

More entries:
Measured Percent Effect of "COc1ccc(CN2C[C@@H](OCc3ccccn3)[C@H]3COC[C@H]32)cc1" : -4.56

Briefly, Percent Effect measured for O=C(N1CCCC1)N1Cc2nccn2CC(CN2CCCC2)C1 (stereo not drawn) : 0.719

According to the records, this molecule Cc1cc(CN(C)C2CCCN(Cc3noc(C4CC4)n3)C2)no1 (stereo not drawn) displays Percent Effect of -2.13

Reported Percent Effect of Cc1nc(C)n(C2CCCN(C(=O)COCc3ccccc3)C2)n1 (stereo not drawn) : -0.388

Looking up O=C(CC1CCCC1)N1CCCC(c2n[nH]c3nccnc23)C1 (stereo not drawn) , I see its Percent Effect listed as -2.49

----------
System: Trypanosoma cruzi
method.summary: Trypanosoma cruzi phosphomannomutase and mannose-1-phosphate guanylyltransferase assay
Format: functional
Set-up: scale not given: direction of the effect not stated beside the values
measurement.context: 10 µM
metric.name: Percent Effect (%)
Give the value in % but do not write % after it.

Examples with answers:
GET /value?item= "O=C(CCN1CCCC1=O)NCc1cccnc1Oc1ccccc1" &field=Percent Effect returns 0.595

Entry "CCC1=N[C@@]2(CC[C@@H]3CN(CC4CC4)C[C@@H]32)C(=O)N1C" , Percent Effect reported as -1.86

Reported Percent Effect for "c1cnc(N2CCC3(CCN(Cc4ccncc4)CC3)CC2)nc1" was -2.25

So for "CN(C)CCNC(=O)c1cc(-c2cnc(N3CCCC3)nc2)cn1C" , the logged Percent Effect turned out to be -0.197

Percent Effect measured on "CN(Cc1nnc2n1CCC2)C(=O)NCCc1ccc2c(c1)OCO2" = -5.38

Continuing:
Note to self: Percent Effect recorded for Cc1nc(CN2CCCC(Cn3cc(CCO)nn3)C2)c[nH]1 (stereo unspecified) was 5.21

Percent Effect in this record for Cc1nc(C)n(CC2CCCN(c3ncnc4sccc34)C2)n1 (stereo unspecified) : -6.32

----------
# Percent Effect listing for each entry below
study.system: Ubiquitin-activating enzyme e1, putative (Leishmania donovani (strain BPK282A1))
Sequence (whole entry): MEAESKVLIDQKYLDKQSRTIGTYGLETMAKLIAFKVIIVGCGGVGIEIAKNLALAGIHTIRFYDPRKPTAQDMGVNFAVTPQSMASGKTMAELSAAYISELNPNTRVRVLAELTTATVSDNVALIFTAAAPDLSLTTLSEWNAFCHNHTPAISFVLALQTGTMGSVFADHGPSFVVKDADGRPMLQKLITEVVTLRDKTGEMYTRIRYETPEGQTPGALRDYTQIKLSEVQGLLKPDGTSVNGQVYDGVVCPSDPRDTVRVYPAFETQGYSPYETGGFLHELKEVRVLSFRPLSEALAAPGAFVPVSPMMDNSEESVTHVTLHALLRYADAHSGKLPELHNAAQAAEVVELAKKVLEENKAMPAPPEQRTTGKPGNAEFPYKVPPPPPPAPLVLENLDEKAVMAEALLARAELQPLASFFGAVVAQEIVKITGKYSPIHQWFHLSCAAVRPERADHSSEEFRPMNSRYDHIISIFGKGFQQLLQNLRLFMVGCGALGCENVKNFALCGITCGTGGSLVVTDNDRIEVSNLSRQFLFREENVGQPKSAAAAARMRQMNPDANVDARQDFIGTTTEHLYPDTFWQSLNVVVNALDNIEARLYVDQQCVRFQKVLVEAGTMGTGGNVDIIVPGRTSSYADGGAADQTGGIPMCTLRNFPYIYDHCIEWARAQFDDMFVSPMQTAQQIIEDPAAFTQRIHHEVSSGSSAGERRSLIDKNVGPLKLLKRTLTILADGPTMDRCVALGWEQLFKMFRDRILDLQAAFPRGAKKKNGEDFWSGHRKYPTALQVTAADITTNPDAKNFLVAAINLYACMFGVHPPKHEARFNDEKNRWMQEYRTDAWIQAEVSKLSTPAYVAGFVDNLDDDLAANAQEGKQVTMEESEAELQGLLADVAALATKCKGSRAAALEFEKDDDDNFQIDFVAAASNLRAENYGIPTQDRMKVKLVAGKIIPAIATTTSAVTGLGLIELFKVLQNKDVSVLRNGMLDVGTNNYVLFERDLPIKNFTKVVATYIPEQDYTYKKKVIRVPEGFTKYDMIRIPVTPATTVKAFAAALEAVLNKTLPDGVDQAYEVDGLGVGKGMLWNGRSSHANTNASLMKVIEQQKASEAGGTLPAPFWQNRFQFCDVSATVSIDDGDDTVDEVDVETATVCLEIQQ
method.summary: Leishmania donovani Ubiquitin Activating Enzyme (LdE1)
Format: functional
Set-up: scale not given: direction of the effect not stated beside the values
measurement.context: 30 µM
Potency and affinity values are given separately.
Numbers only; they are read as %.

Please review the following examples before continuing.
So for "Fc1ccc(CN2CC[C@H]3O[C@@H](COCC4CCOCC4)CC[C@H]32)cc1" , the logged Percent Effect turned out to be 5.33

The compound listed as "Cc1nc2c(c(C)c1CC(=O)Nc1ccc(Cl)cc1)c(=O)[nH]n2C" has a reported Percent Effect of 10.7

Noted for CN(c1ccncn1)C1CC2(CCN(C(=O)CCc3cccs3)C2)C1 (centres undefined) : its Percent Effect reads 1.35

The measured Percent Effect associated with "CN(Cc1csc(-c2cccs2)n1)C(=O)CCn1ccccc1=O" reads 8

Data point: Cc1nc(C2CCCN(C(=O)C(C)(C)n3cc(Cl)cn3)C2)no1 (centres undefined) ; Percent Effect = 3.8

Continuing:
Sure, the documented Percent Effect for "Cc1noc([C@@]23CCO[C@@H]2CCN(C(=O)c2sccc2C)C3)n1" is 5.33
